Ref: paper PMC2363406

- test_details: Clinical plasma pharmacokinetics of paclitaxel and its metabolites (HPLC, non-compartmental analysis)
- condition_context: human, plasma, iv, 80 mg, Paclitaxel AUC, schedule 1; paclitaxel 80 mg m-2 3-h i.v., course 1; patients 3, 6, 9 in order
test_readout: AUC

Input line: Look up AUC: CC(=O)O[C@H]1C(=O)[C@@]2(C)[C@H]([C@H](OC(=O)c3ccccc3)[C@]3(O)C[C@H](OC(=O)[C@H](O)[C@@H](NC(=O)c4ccccc4)c4ccccc4)C(C)=C1C3(C)C)[C@]1(OC(C)=O)CO[C@@H]1C[C@@H]2O [paclitaxel]
Output line: 3.78 µM·h

* * *

- test_details: Clinical plasma pharmacokinetics of nolatrexed (HPLC, non-compartmental analysis)
- Type: in vivo, human
- condition_context: human, plasma, iv, Nolatrexed Half-life, schedule 3; nolatrexed 500 mg m-2 day-1 120-h i.v. infusion; patients 2, 4, 8 in order
test_readout: half-life (h)
Answers are plain numbers, in h.

Input line: Look up half-life: Cc1ccc2nc(N)[nH]c(=O)c2c1Sc1ccncc1 [nolatrexed]
Output line: 1.62

* * *

- test_details: Clinical plasma pharmacokinetics of paclitaxel and its metabolites (HPLC, non-compartmental analysis)
- condition_context: human, plasma, iv, 80 mg, Paclitaxel Half-life, schedule 2; paclitaxel 80 mg m-2 3-h i.v.; course 1; patients 5, 7, 10 in order
test_readout: half-life
The reply should read as a number followed by its unit.

Input line: Look up half-life: CC(=O)O[C@H]1C(=O)[C@@]2(C)[C@H]([C@H](OC(=O)c3ccccc3)[C@]3(O)C[C@H](OC(=O)[C@H](O)[C@@H](NC(=O)c4ccccc4)c4ccccc4)C(C)=C1C3(C)C)[C@]1(OC(C)=O)CO[C@@H]1C[C@@H]2O [paclitaxel]
Output line: 6.88 h

* * *

- test_details: Clinical plasma pharmacokinetics of nolatrexed (HPLC, non-compartmental analysis)
- Type: in vivo, human
- condition_context: human, plasma, iv, Nolatrexed Half-life, schedule 1; nolatrexed 500 mg m-2 day-1 120-h i.v. infusion; patients 3, 6, 9 in order
test_readout: half-life
The reply should read as a number followed by its unit.

Input line: Look up half-life: Cc1ccc2nc(N)[nH]c(=O)c2c1Sc1ccncc1
Output line: 1.1 h

* * *

- test_details: Clinical plasma pharmacokinetics of paclitaxel and its metabolites (HPLC, non-compartmental analysis)
- condition_context: human, plasma, intravenous, 135 mg m-2, Paclitaxel Half-life, patient 8, single-agent paclitaxel 135 mg m-2 as 3-h infusion, no nolatrexed
test_readout: half-life (min)
Give bare numbers, in min.

Input line: Look up half-life: CC(=O)O[C@H]1C(=O)[C@@]2(C)[C@H]([C@H](OC(=O)c3ccccc3)[C@]3(O)C[C@H](OC(=O)[C@H](O)[C@@H](NC(=O)c4ccccc4)c4ccccc4)C(C)=C1C3(C)C)[C@]1(OC(C)=O)CO[C@@H]1C[C@@H]2O [paclitaxel]
Output line: 360

* * *

- test_details: Clinical plasma pharmacokinetics of paclitaxel and its metabolites (HPLC, non-compartmental analysis)
- condition_context: human, plasma, iv, 80 mg, Paclitaxel Half-life, schedule 3; paclitaxel 80 mg m-2 3-h i.v.; course 1; patients 2, 4, 8 in order
test_readout: half-life (h)
Numbers only, in h.

Input line: Look up half-life: CC(=O)O[C@H]1C(=O)[C@@]2(C)[C@H]([C@H](OC(=O)c3ccccc3)[C@]3(O)C[C@H](OC(=O)[C@H](O)[C@@H](NC(=O)c4ccccc4)c4ccccc4)C(C)=C1C3(C)C)[C@]1(OC(C)=O)CO[C@@H]1C[C@@H]2O [paclitaxel]
Output line: 6.08
